Experiment: Microsomal stability, human liver microsomes (predicted hepatic clearance)
Settings: predicted from in vitro microsomal stability data
Overview of reported Predicted Hepatic Clearance (Pred. Cl.) across a group of compounds:
recorded-metric: Predicted Hepatic Clearance (Pred. Cl.) (mL/min/kg)

{"compound": "COCCn1c(Cc2cc(F)c(-c3cccc(OCc4ccc(F)cc4C)n3)cc2F)nc2ccc(C(=O)O)cc21", "observed": 9.5}
{"compound": "N#Cc1ccc(COc2ncc(F)c(-c3cc(F)c(Cc4nc5c(F)cc(C(=O)O)cc5n4C[C@@H]4CCO4)cc3F)n2)c(F)c1", "observed": 5.83}
{"compound": "N#Cc1ccc(COc2cccc(-c3cc(=O)n(Cc4nc5ccc(C(=O)O)cc5n4C[C@@H]4CCO4)cc3F)n2)c(F)c1", "observed": 3.33}
{"compound": "N#Cc1ccc(COc2cccc(-c3cc(F)c(Cc4nc5ccc(C(=O)O)cc5n4C[C@@H]4CC(F)(F)CO4)cc3F)n2)c(F)c1 (racemic)", "observed": 6.5}
{"compound": "COCCC1(Cn2c(Cc3cc(F)c(-c4cccc(OCc5ccc(C#N)cc5F)n4)cc3F)nc3ccc(C(=O)O)cc32)CC1", "observed": 1.83}
{"compound": "CCOP(=O)(OCC)c1ccc2nc(Cc3ccc(-c4cccc(OCc5ccc(C#N)cc5F)n4)cc3F)n(CCOC)c2c1", "observed": 19.5}
{"compound": "COCCn1c(Cc2cc(F)c(-c3cccc(OCc4ccc(C#N)cc4)n3)cc2F)nc2c(F)cc(C(=O)O)cc21", "observed": 2.67}
{"compound": "COCCn1c(Cc2cc(F)c(-c3cccc(OCc4cccc(-c5ccccn5)c4)n3)cc2F)nc2ccc(C(=O)O)cc21", "observed": 5.17}
{"compound": "COCCn1c(Cc2cc(F)c(-c3cccc(OCc4ccn(-c5ccccc5)n4)n3)cc2F)nc2ccc(C(=O)O)cc21", "observed": 1.83}
{"compound": "COCCn1c(Cc2cc(F)c(-c3cccc(OCc4ccc(C#N)cc4F)n3)c(F)c2)nc2ccc(C(=O)O)cc21", "observed": 7}
{"compound": "O=C(O)c1ccc2nc(Cc3cc(F)c(-c4ccc(F)c(OCc5ccc(C(F)F)cc5F)n4)cc3F)n(CC34CC(CO3)C4)c2c1", "observed": 1.83}
{"compound": "O=C(O)c1ccc2nc(Cc3ccc(-c4ccnc(OCc5ccc(C(F)(F)F)cc5F)n4)c(F)c3)n(C[C@@H]3CCO3)c2c1", "observed": 5.5}
{"compound": "CN1CC2CC1(Cn1c(Cc3cc(F)c(-c4cccc(OCc5ccc(C#N)cc5F)n4)cc3F)nc3ccc(C(=O)O)cc31)C2", "observed": 1.83}
